System: catalepsy in mice
Assay: Catalepsy assay
Details: mice, ratio of ED50 values
Recorded Catalepsy/Apomorphine induced clambering values for a group of compounds are listed next.
Reply with the value as a number alone.

Solved entries:
COc1ccccc1N1CCN(CCCOc2ccc3c(c2)C(=O)N(C)CC3)CC1 = 273
CN1CCc2ccc(OCCCN3CCN(c4nsc5ccccc45)CC3)cc2C1=O = 533
CN1CCc2ccc(OCCCN3CCN(c4ncccn4)CC3)cc2C1=O = 214

Then this compound:
Given the compound O=C(CCCN1CCC(O)(c2ccc(Cl)cc2)CC1)c1ccc(F)cc1 [haloperidol, reference compound] , what is its reported Catalepsy/Apomorphine induced clambering?
4.89
